molecular target: hSERT (human serotonin transporter) (Homo sapiens)
Sequence (P31645 whole entry): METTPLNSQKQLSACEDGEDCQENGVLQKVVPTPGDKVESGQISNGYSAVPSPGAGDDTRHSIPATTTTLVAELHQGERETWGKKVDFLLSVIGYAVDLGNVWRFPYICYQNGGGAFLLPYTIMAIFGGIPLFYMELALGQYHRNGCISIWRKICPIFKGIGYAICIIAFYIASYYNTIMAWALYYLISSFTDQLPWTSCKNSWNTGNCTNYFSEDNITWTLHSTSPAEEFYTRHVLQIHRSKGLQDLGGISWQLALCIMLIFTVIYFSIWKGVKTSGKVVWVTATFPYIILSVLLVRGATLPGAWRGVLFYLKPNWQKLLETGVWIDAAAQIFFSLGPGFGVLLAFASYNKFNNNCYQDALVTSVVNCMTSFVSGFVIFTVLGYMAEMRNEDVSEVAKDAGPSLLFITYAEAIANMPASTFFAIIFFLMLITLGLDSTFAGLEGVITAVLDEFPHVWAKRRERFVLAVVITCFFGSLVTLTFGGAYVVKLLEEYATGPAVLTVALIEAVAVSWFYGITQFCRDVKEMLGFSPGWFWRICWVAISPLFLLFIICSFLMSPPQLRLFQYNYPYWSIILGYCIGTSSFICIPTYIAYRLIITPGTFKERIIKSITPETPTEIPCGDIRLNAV
MEASUREMENT_LABEL: Ki (µM)
Give the number; µM is assumed, so skip it.

Kindly state the measured Ki obtained for NC(=O)OC[C@H](N)Cc1ccccc1 with hSERT (human serotonin transporter) (Homo sapiens). 81.5
